- study_system: Tyrosine-protein kinase ABL1 (Homo sapiens) + Ras and Rab interactor 1 (Homo sapiens) (UniProt P00519+Q13671)
- Sequence (P00519 whole entry, looked up): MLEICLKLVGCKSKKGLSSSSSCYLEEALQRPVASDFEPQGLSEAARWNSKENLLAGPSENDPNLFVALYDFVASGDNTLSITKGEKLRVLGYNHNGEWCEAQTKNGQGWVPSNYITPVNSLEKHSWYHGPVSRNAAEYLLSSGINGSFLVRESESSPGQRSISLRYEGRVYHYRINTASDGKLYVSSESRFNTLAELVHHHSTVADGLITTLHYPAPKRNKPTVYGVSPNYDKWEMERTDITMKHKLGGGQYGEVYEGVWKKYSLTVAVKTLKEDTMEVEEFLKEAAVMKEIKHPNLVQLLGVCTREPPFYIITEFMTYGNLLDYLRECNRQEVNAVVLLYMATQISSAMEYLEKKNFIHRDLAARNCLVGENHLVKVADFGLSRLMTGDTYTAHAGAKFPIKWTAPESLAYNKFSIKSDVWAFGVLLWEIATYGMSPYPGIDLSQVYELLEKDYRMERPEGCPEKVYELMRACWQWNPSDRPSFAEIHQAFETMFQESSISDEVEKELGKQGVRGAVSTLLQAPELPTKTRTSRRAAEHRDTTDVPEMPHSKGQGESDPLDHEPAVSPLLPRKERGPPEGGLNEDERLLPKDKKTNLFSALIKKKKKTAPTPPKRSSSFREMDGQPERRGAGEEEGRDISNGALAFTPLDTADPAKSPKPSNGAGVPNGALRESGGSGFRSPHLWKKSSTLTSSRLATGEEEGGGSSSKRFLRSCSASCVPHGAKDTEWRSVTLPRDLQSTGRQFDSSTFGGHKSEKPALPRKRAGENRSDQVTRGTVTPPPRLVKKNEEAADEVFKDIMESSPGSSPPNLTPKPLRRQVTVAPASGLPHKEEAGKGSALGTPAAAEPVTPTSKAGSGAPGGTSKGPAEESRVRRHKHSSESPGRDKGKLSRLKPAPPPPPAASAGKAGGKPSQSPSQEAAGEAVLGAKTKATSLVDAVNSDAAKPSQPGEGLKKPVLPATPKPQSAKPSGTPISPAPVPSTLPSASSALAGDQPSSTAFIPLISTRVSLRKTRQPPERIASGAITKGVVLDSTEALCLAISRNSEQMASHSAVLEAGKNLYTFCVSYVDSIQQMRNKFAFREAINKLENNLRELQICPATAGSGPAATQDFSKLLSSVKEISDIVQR
- Sequence (Q13671 whole entry, looked up): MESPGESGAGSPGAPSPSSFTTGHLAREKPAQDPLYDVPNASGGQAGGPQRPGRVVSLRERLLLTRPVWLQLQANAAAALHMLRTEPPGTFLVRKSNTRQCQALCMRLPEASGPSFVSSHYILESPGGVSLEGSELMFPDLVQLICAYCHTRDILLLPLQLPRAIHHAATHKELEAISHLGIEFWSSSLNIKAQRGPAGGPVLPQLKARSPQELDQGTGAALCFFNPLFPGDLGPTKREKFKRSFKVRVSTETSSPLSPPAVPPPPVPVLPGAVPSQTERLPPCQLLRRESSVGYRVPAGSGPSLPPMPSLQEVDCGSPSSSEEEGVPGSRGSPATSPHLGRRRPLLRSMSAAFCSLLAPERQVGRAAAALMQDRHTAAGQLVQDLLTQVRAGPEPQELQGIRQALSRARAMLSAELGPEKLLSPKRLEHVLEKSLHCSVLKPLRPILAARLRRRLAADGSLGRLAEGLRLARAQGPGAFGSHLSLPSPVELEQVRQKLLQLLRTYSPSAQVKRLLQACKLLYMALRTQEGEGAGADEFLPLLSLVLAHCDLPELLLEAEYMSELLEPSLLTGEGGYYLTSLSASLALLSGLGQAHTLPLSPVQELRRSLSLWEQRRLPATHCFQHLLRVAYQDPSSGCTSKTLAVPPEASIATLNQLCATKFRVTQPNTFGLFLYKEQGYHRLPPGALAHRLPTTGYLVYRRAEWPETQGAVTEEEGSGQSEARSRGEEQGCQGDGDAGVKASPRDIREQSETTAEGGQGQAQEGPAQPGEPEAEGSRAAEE
- assay_summary: inhibitors of Rin1-Abl protein binding, primary screen, biochemical, TR-FRET (AID 588664)
- particulars: at 7.35 µM, hits give high values
The campaign covered roughly 360,000 compounds. About 1,400 (0.39%) were called active. This excerpt belongs to a sample that is enriched for actives.
Entries and their inhibition values follow.

C=C1c2c(Cl)ccc(O)c2C(O)=C2C(=O)[C@]3(O)C(O)=C(C(N)=O)C(=O)[C@@H](N(C)C)[C@@H]3[C@@H](O)C12 (stereo partly specified) = 20.6% (active)
C[C@@H]1CN([C@@H](C)CO)C(=O)CCCn2nncc2CO[C@H]1CN(C)C(=O)Nc1ccc(C(F)(F)F)cc1 = -1.77% (inactive)
O=C(CNCc1ccco1)Nc1cc(S(=O)(=O)N2CCOCC2)ccc1N1CCCC1 = 5.51% (active)
NC(=O)C[C@@H]1NC(=O)CNC(=O)c2cc([N+](=O)[O-])cc(I)c2NCCC(C(N)=O)NC1=O (stereo partly specified) = -0.35% (inactive)

Item Oc1cccc2cc(-c3ccncc3)cnc12 has what recorded inhibition?
13.3% (active)

Item CCc1cc2c(NC(Cc3ccccc3)C(=O)O)ncnc2s1 (stereo unspecified) has what recorded inhibition?
-0.92% (inactive)

Item Cc1ccc(NC(=O)OCCNC(=O)c2ccncc2)cc1 has what recorded inhibition?
1.62% (inactive)

Item COc1cccc2c(O)cc(=O)n(C)c12 has what recorded inhibition?
-0.91% (inactive)

Item COc1ccc(CCC(=O)Nc2ccc(Cl)c(S(=O)(=O)N3CCOCC3)c2)cc1OC has what recorded inhibition?
0.12% (inactive)

Item Cc1ccc(S(=O)(=O)NCCC(=O)NNC(=O)C2COc3ccccc3O2)cc1 (stereo unspecified) has what recorded inhibition?
-0.47% (inactive)

Item N#Cc1ccccc1NC(=O)COc1c(Br)cc(Br)c2cccnc12 has what recorded inhibition?
-0.22% (inactive)
